target: HCV NS3/4A protease complex, BMS strain (UniProt P27958, species not given/STRAIN_BMS); construct: other: NS3/4A BMS strain; activity range class; numeric values, unit not given; said of H77 and J4L6S; fused on or other part: A three-lysine solubilising tail at the C-terminus of NS4A; A His tag is implied by the pET21b vector and Ni-NTA purification; Both are printed for the H77 and J4L6S constructs and apply to BMS by inference; experiment: FRET peptide assay to monitor HCV NS3/4A proteolytic activity (BMS strain); type: biochemical, Hepatitis C virus (genotype 1a); conditions: read-out: HCV Protease (IC50); NS3/4A BMS strain; activity range class
Sequence (P27958 1027-1657, change not shown, one chain of several): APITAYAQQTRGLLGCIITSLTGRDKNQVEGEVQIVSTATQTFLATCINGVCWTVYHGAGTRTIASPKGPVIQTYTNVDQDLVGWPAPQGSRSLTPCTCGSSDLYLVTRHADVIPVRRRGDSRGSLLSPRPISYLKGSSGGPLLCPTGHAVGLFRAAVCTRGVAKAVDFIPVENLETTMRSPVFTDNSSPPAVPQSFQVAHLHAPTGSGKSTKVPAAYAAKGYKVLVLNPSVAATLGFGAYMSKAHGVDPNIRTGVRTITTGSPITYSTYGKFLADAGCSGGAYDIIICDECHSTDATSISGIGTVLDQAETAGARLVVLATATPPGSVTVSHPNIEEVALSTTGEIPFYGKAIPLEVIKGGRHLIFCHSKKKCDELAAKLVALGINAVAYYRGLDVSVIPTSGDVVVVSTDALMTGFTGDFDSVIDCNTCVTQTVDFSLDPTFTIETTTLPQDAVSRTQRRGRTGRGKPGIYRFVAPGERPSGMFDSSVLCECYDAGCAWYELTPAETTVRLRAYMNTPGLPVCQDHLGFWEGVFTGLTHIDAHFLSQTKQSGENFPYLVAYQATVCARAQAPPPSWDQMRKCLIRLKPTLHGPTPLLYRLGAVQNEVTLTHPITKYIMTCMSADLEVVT
pIC50: −log10 of the molar value.
metric-name: pIC50

Answered examples (2):
• C=C[C@@H]1C[C@]1(NC(=O)[C@@H]1C[C@@H](Oc2ncc(OC)c3ccc(Cl)cc23)CN1C(=O)C(Nc1cccc(OC)c1)C(C)(C)C)C(=O)NS(=O)(=O)C1CC1 (single isomer, unassigned) [Compound 201B] = 6.70 to 7.70
• C=C[C@@H]1C[C@]1(NC(=O)[C@@H]1C[C@@H](Oc2ncc(OC)c3ccc(Cl)cc23)CN1C(=O)[C@@H](Nc1cccc(C(=O)OC)c1)C(C)(C)C)C(=O)NS(=O)(=O)C1CC1 [232 first isomer] = 7.70 to 9.22

Let us move to another entry and its pIC50.
The molecule C=C[C@@H]1C[C@]1(NC(=O)[C@@H]1C[C@@H](Oc2ncc(OC)c3ccc(Cl)cc23)CN1C(=O)C(Nc1cncc(C)c1)C(C)(C)C)C(=O)NS(=O)(=O)C1CC1 (stereo partly drawn) [Compound 25] showed pIC50 equal to 7.70 to 9.22
